These data points were gathered from patent US8816085B2.

- subjectOfTest: PDE5A1 (human PDE5 from platelets) (Homo sapiens, UniProt O76074)
- Construct: from tissue; host or cells: platelets from fresh blood of human donors (10,000 g supernatant of sonified platelets)
- method: Inhibition of type 5 phosphodiesterase (PDE5) activity, modified SPA test
- Format: biochemical
- protocolConditions: PDE5-containing human platelet lysate, 0.5 μM cGMP, value classes, read-out: PDE5A1 inhibitory values [measured as −logIC50 (mol/l)] (converted)
reportedProperty: IC50

>>> observedmeasurement("COCC(=O)N[C@H]1CC[C@H](NC(=O)c2c(C)[nH]c3c(-c4cc(F)c(OC)cc4OCC4CC4)ccnc23)CC1")
"< 1 nM"
>>> observedmeasurement("COc1ccc(OCC2CC2)c(-c2ccnc3c(C(=O)N[C@H]4CC[C@H](NC(=O)CO)CC4)c(C)[nH]c23)c1")
"< 1 nM"
>>> observedmeasurement("COc1cc(-c2ccnc3c(C(=O)NC4CCN(C(=O)[C@H](C)O)CC4)c(C)[nH]c23)c(OCC2CC2)cc1F")
"< 1 nM"
>>> observedmeasurement("COCC(=O)N1CC[C@@H](NC(=O)c2c(C)[nH]c3c(-c4cc(OC)c(F)cc4OCC4CC4)ccnc23)[C@H](O)C1 (relative stereo)")
"< 1 nM"
>>> observedmeasurement("COCC(=O)N[C@H]1CC[C@@H](NC(=O)c2c(C)[nH]c3c(-c4cc(C)ccc4OCC4CC4)ccnc23)CC1")
"1 to 10 nM"

Notebook: Cc1[nH]c2c(-c3cc(F)ccc3OCC3CC3)ccnc2c1C(=O)N[C@H]1CC[C@H](NC(=O)CO)CC1 , IC50 read as < 1 nM

Notebook: COc1ccc(-c2ccnc3c(C(=O)NC4CCN(C(=O)CO)CC4)c(C)[nH]c23)c(OCC2CC2)c1 , IC50 read as < 1 nM

Quick note, IC50 for COc1cc(-c2ccnc3c(C(=O)N[C@H]4CC[C@@H](NC(=O)CO)CC4)c(C)[nH]c23)c(OCC2CC2)cc1F landed at < 1 nM

IC50 reading for Cc1ccc(OCC2CC2)c(-c2ccnc3c(C(=O)N[C@H]4CC[C@H](NC(=O)CO)CC4)c(C)[nH]c23)c1 : 1 to 10 nM

// CC(=O)N1CC[C@@H](NC(=O)c2c(C)[nH]c3c(-c4cc(F)ccc4OCC4CC4)ccnc23)[C@H](O)C1 (relative stereo) : IC50 value = 1 to 10 nM

// IC50 lookup, compound = CC(=O)N[C@H]1CC[C@@H](NC(=O)c2c(C)[nH]c3c(-c4cc(F)ccc4OCC4CC4)ccnc23)CC1 , result: 1 to 10 nM

IC50 reading for COc1ccc(-c2ccnc3c(C(=O)N[C@H]4CC[C@@H](NC(C)=O)CC4)c(C)[nH]c23)c(OCC2CC2)c1 : < 1 nM

The recorded IC50 for entry COCC(=O)N[C@H]1CC[C@H](NC(=O)c2c(C)[nH]c3c(-c4ccc(F)cc4OCC4CC4)ccnc23)CC1 equals < 1 nM

----------
# reported IC50; entries follow
- subjectOfTest: PDE5A1 (human PDE5 from platelets) (Homo sapiens, UniProt O76074)
- Construct: from tissue; host or cells: platelets from fresh blood of human donors (10,000 g supernatant of sonified platelets)
- method: Inhibition of type 5 phosphodiesterase (PDE5) activity, modified SPA test
- Type: biochemical
- protocolConditions: PDE5-containing human platelet lysate, 0.5 μM cGMP, value classes, read-out: PDE5A1 inhibitory values [measured as −logIC50 (mol/l)] (converted)
- Method: Method for Measuring Inhibition of the Type 5 Phosphodiesterase (PDE5) Activity: As a source for human PDE5, platelets are used. For that purpose, 150 ml fresh blood from human donors anticoagulated with citrate [final concentration 0.3% (w/v)] is centrifuged at 200 g for 10 min to obtain the so-called platelet-rich-plasma (PRP) as a supernatant. 1/10 volume of ACD solution (85 mM Na3-citrate, 111 mM D-glucose, 71 mM citric acid, pH 4.4) is added to 9/10 volume of PRP. […]

Record excerpt, results attached:
>>> observedmeasurement("CCC(=O)N[C@H]1CC[C@H](NC(=O)c2c(C)[nH]c3c(-c4ccc(OC)cc4OCC4CC4)ccnc23)CC1 [Example E35]")
"< 1 nM"
>>> observedmeasurement("COc1ccc(-c2ccnc3c(C(=O)N[C@H]4CC[C@H](NC(=O)CO)CC4)c(C)[nH]c23)c(OCC2CC2)c1 [Example F22]")
"< 1 nM"
>>> observedmeasurement("CC(=O)N[C@H]1CC[C@@H](NC(=O)c2c(C)[nH]c3c(-c4c(OCC5CC5)ccc5c4OCO5)ccnc23)CC1 [Example E06]")
"< 1 nM"
>>> observedmeasurement("CC(=O)N[C@H]1CC[C@H](NC(=O)c2c(C)[nH]c3c(-c4ccc(F)cc4OCC4CC4)ccnc23)CC1 [Example E13]")
"< 1 nM"
>>> observedmeasurement("CCC(=O)N1CCC(NC(=O)c2c(C)[nH]c3c(-c4cc(C)ccc4OCC4CC4)ccnc23)CC1 [Example E53]")
"1 to 10 nM"

Known value: PDE5A1 (human PDE5 from platelets) (Homo sapiens, UniProt O76074) IC50 of the compound COc1cc(-c2ccnc3c(C(=O)NC4CCN(C(=O)CO)CC4)c(C)[nH]c23)c(OCC2CC2)cc1F [Example F40] equals < 1 nM

Item: CCC(=O)N[C@H]1CC[C@@H](NC(=O)c2c(C)[nH]c3c(-c4c(OCC5CC5)ccc5c4OCO5)ccnc23)CC1 [Example E07] | System: PDE5A1 (human PDE5 from platelets) (Homo sapiens, UniProt O76074) | IC50: < 1 nM

----------
- subjectOfTest: PDE5A1 (human PDE5 from platelets) (Homo sapiens)
- Construct: from tissue; host or cells: platelets from fresh blood of human donors (10,000 g supernatant of sonified platelets)
- method: Inhibition of type 5 phosphodiesterase (PDE5) activity, modified SPA test
- Format: biochemical
- protocolConditions: PDE5-containing human platelet lysate, 0.5 μM cGMP, value classes, read-out: PDE5A1 inhibitory values [measured as −logIC50 (mol/l)] (converted)
reportedProperty: IC50

Completed entries (count: 6):
>>> observedmeasurement("CC(=O)N[C@H]1CC[C@H](NC(=O)c2c(C)[nH]c3c(-c4cc(C)ccc4OCC4CC4)ccnc23)CC1")
"1 to 10 nM"
>>> observedmeasurement("COCC(=O)N1C[C@@H](O)[C@H](NC(=O)c2c(C)[nH]c3c(-c4cc(OC)c(F)cc4OCC4CC4)ccnc23)C1 (relative stereo)")
"< 1 nM"
>>> observedmeasurement("Cc1[nH]c2c(-c3cc(F)ccc3OCC3CC3)ccnc2c1C(=O)NC1CCN(C(=O)CO)CC1")
"1 to 10 nM"
>>> observedmeasurement("Cc1[nH]c2c(-c3cc(F)ccc3OCC3CC3)ccnc2c1C(=O)N[C@H]1CC[C@@H](NC(=O)CO)CC1")
"1 to 10 nM"
>>> observedmeasurement("COCC(=O)N[C@H]1CC[C@@H](NC(=O)c2c(C)[nH]c3c(-c4cc(F)c(OC)cc4OCC4CC4)ccnc23)CC1")
"< 1 nM"
>>> observedmeasurement("COc1cc(OCC2CC2)c(-c2ccnc3c(C(=O)N[C@H]4CC[C@@H](NC(=O)CO)CC4)c(C)[nH]c23)cc1F")
"< 1 nM"

Param item: COc1ccc(OCC2CC2)c(-c2ccnc3c(C(=O)NC4CCN(C(C)=O)CC4)c(C)[nH]c23)c1 ; param system: PDE5A1 (human PDE5 from platelets) (Homo sapiens); output IC50: < 1 nM

The observed IC50 for CCC(=O)N[C@H]1CC[C@@H](NC(=O)c2c(C)[nH]c3c(-c4ccc(OC)cc4OCC4CC4)ccnc23)CC1 when tested with PDE5A1 (human PDE5 from platelets) (Homo sapiens) stands at < 1 nM

Lab note: molecule COc1ccc(-c2ccnc3c(C(=O)N[C@H]4CC[C@@H](NC(=O)[C@H](C)O)CC4)c(C)[nH]c23)c(OCC2CC2)c1 tested on PDE5A1 (human PDE5 from platelets) (Homo sapiens); recorded IC50 was < 1 nM

PDE5A1 (human PDE5 from platelets) (Homo sapiens) assay, molecule CCC(=O)N1CCC(NC(=O)c2c(C)[nH]c3c(-c4ccc(OC)cc4OCC4CC4)ccnc23)CC1 , recorded IC50 = < 1 nM

For Cc1[nH]c2c(-c3ccc(F)cc3OCC3CC3)ccnc2c1C(=O)N[C@H]1CC[C@H](NC(=O)[C@H](C)O)CC1 on PDE5A1 (human PDE5 from platelets) (Homo sapiens), measured IC50 was < 1 nM

Tested on PDE5A1 (human PDE5 from platelets) (Homo sapiens): Cc1ccc(OCC2CC2)c(-c2ccnc3c(C(=O)NC4CCN(C(=O)[C@H](C)O)CC4)c(C)[nH]c23)c1 . Observed IC50: 1 to 10 nM

// molecule COc1cc(OCC2CC2)c(-c2ccnc3c(C(=O)N[C@H]4CC[C@H](NC(=O)CO)CC4)c(C)[nH]c23)cc1F , assay PDE5A1 (human PDE5 from platelets) (Homo sapiens), IC50 value: < 1 nM

Readout IC50 for CCC(=O)N1CCC(NC(=O)c2c(C)[nH]c3c(-c4cc(OC)c(F)cc4OCC4CC4)ccnc23)CC1 , test system PDE5A1 (human PDE5 from platelets) (Homo sapiens), was < 1 nM

Short answer on PDE5A1 (human PDE5 from platelets) (Homo sapiens) for Cc1[nH]c2c(-c3ccc(F)cc3OCC3CC3)ccnc2c1C(=O)N[C@H]1CC[C@@H](NC(=O)CO)CC1 , IC50: 1 to 10 nM

Log: PDE5A1 (human PDE5 from platelets) (Homo sapiens), molecule CCOC(=O)N1CCC(NC(=O)c2c(C)[nH]c3c(-c4c(OCC5CC5)ccc5c4OCO5)ccnc23)CC1 , IC50 = < 1 nM

Summary line: CCC(=O)N1CCC(NC(=O)c2c(C)[nH]c3c(-c4cc(OC)ccc4OCC4CC4)ccnc23)CC1 , PDE5A1 (human PDE5 from platelets) (Homo sapiens), reported IC50 = < 1 nM

Item COc1cc(-c2ccnc3c(C(=O)N[C@H]4CC[C@H](NC(=O)[C@H](C)O)CC4)c(C)[nH]c23)c(OCC2CC2)cc1F ; assay system PDE5A1 (human PDE5 from platelets) (Homo sapiens); IC50 reported as < 1 nM

Bench note, PDE5A1 (human PDE5 from platelets) (Homo sapiens): entry CCC(=O)N1CCC(NC(=O)c2c(C)[nH]c3c(-c4ccc(F)cc4OCC4CC4)ccnc23)CC1 , its IC50 = < 1 nM

Value (IC50, PDE5A1 (human PDE5 from platelets) (Homo sapiens)) for record COc1cc(-c2ccnc3c(C(=O)N[C@@H]4CN(C(=O)CO)C[C@H]4O)c(C)[nH]c23)c(OCC2CC2)cc1F (relative stereo) = < 1 nM

Tested on PDE5A1 (human PDE5 from platelets) (Homo sapiens): COc1ccc(-c2ccnc3c(C(=O)N[C@H]4CC[C@@H](NC(=O)CO)CC4)c(C)[nH]c23)c(OCC2CC2)c1 . Observed IC50: < 1 nM

Entry COCC(=O)N1C[C@@H](O)[C@H](NC(=O)c2c(C)[nH]c3c(-c4cc(OC)ccc4OCC4CC4)ccnc23)C1 (relative stereo) , PDE5A1 (human PDE5 from platelets) (Homo sapiens) data, IC50 value: 1 to 10 nM

PDE5A1 (human PDE5 from platelets) (Homo sapiens) data for CCC(=O)N[C@H]1CC[C@@H](NC(=O)c2c(C)[nH]c3c(-c4cc(F)c(OC)cc4OCC4CC4)ccnc23)CC1 ; its IC50: < 1 nM
